Can you tell me in vitro Activity Compared to Native Peptide (%), vs Glucagon for the items I'm about to list?
Biological target: human GCG receptor (human, UniProt P47871 26-477)
Sequence (P47871 26-477): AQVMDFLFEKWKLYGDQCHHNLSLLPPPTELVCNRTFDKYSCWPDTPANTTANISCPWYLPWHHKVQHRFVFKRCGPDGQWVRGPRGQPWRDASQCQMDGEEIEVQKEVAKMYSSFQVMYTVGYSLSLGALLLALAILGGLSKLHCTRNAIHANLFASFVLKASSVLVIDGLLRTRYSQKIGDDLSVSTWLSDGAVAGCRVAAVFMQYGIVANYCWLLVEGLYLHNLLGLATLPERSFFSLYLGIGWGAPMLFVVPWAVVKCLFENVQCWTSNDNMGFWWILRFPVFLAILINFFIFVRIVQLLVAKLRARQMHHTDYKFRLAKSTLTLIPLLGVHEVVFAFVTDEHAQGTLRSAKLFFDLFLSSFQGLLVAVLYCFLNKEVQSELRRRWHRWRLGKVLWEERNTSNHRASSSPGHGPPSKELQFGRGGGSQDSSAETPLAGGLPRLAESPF
Assay: cell-based or functional assay
Bridges are numbered along the chain shown (N, C = ends). Where no end group is shown, it is not given here. [ ]: non-standard residue; d: D form. Aib = CC(C)(N)C(=O)O
Respond with the bare value in %.

Any idea what in vitro Activity Compared to Native Peptide (%), vs Glucagon was measured for Y[Aib]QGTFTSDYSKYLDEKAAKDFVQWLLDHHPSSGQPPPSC-NH2 (bridge 16-20) [triple agonist of SEQ ID NO: 77] ? 12.2

Any idea what in vitro Activity Compared to Native Peptide (%), vs Glucagon was measured for Y[Aib]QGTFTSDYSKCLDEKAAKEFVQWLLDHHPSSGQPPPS (bridge 16-20; not fully specified (C-terminus)) [triple agonist of SEQ ID NO: 68] ? 8.8

Any idea what in vitro Activity Compared to Native Peptide (%), vs Glucagon was measured for H[Aib]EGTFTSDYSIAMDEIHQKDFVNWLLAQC (bridge 16-20; not fully specified (C-terminus)) [triple agonist of SEQ ID NO: 53] ? 8.4

Data origin, for the record: patent US20250114463A1
